# tested system: Bem1-2, P29366
# Sequence (P29366 139-227): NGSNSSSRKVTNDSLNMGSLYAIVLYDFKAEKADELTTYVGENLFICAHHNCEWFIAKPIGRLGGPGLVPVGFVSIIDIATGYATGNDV
# experiment summary: SPOT array
# assay setup: median of control spots 4347
parameter measured: SPOT intensity
Answers are plain numbers.

> print(dat)
            binder  experimental.value
1  DGNEEKPLLPTRPNK                   0
2  FPPKRKPLLRPQRSD                  19
3  AAAPKHAPPPVPNET                  84
4  PELAPKREAPKPPAN                   1
5  NLKKRPPTAPQRKIS                  51

Parameters: items (list). Returns: SPOT intensity for each item.
1. TKPTPPPKPSHLKPK
2. RRASLFPRDPKRLRP
3. LPMNIQPDLPPRKIM
4. MTKTPETSPPKRPMG

Reply:
0
7
0
3
